Value source: the supplement of paper PMC7125110

B1: glmS ribozyme (parent)
chain: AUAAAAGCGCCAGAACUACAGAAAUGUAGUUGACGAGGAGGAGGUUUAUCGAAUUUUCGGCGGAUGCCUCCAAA

variants of: B1; test: KM; higher = weaker cofactor use; RNA array; conditions: with glucosamine-6-phosphate
KM overview

INSERT INTO results (variant_notation, reported_property, obs_value) VALUES
  ('A64U', 'KM', '1.86 mM'),
  ('A33C G40A', 'KM', '4.07 mM'),
  ('C58U', 'KM', '4.35 mM');

Would you kindly look at the next entry?
The variant A52G C71U showed KM equal to 3.44 mM
